src = paper PMC12029836

tested on: Lepidium sativum L. roots; conditions: 0.01% (w/w) compound in the medium, 24 h incubation, mean(±SD), n = 3
measurement.kind: Inhibition of the root growth in pregerminated Lepidium sativum seeds (IRG, %)

[[record]]
compound = "CSCC[C@H](N)C(=O)O.OCCN(CCO)CCO [[TEA][Met]]"
observed = "0.0(±0.0) %"

[[record]]
compound = "CC(N)C(=O)O.OCCN(CCO)CCO [[TEA][Ala]]"
observed = "0.0(±0.0) %"

[[record]]
compound = "N=C(N)NCCC[C@H](N)C(=O)O.OCCN(CCO)CCO [[TEA][Arg]]"
observed = "9.0(±1.9) %"

[[record]]
compound = "CC(O)C(N)C(=O)O.OCCN(CCO)CCO [[TEA][Thr]]"
observed = "0.0(±0.0) %"

[[record]]
compound = "NCCCC[C@H](N)C(=O)O.OCCN(CCO)CCO [[TEA][Lys]]"
observed = "9.2(±1.9) %"

[[record]]
compound = "N[C@@H](Cc1c[nH]cn1)C(=O)O.OCCN(CCO)CCO [[TEA][His]]"
observed = "1.1(±2.2) %"

